Source of measurements: patent US20240199745A1

Reported H1650 GFP Flourescence EC50 values for a set of binders
measured_target: EGFR on EGFR positive non-small cell lung cancer cells NCI-H1650 (UniProt P00533 25-1210)
run_description: cell-based or functional assay
Please state the figure in µg/mL; there is no need to write the unit.

stdin: Give the reported value of H1650 GFP Flourescence EC50 for this record: AbK-CZ (antibody, human IgG1, kappa, V domains shown, synthon CZ on reduced interchain cysteines; average DAR 3.4 per ADC) VH: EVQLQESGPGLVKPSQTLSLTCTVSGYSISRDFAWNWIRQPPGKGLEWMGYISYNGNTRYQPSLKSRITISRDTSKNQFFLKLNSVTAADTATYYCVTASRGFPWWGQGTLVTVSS VL: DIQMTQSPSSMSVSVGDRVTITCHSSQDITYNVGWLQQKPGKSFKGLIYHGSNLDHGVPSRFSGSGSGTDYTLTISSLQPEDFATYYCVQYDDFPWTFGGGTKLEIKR
stdout: 0.21

stdin: Give the reported value of H1650 GFP Flourescence EC50 for this record: AbA-SR (antibody, human IgG1, kappa, V domains shown, synthon SR on reduced interchain cysteines; average DAR 2.3 per ADC) VH: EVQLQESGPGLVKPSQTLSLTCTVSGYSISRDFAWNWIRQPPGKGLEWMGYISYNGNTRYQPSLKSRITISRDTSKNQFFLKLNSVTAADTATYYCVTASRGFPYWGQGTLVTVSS VL: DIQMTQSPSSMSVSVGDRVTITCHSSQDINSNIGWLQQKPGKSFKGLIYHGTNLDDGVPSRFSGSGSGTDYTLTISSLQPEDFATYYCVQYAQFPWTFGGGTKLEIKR
stdout: 2.22

stdin: Give the reported value of H1650 GFP Flourescence EC50 for this record: AbG-CZ (antibody, human IgG1, kappa, V domains shown, synthon CZ on reduced interchain cysteines; average DAR 3.4 per ADC) VH: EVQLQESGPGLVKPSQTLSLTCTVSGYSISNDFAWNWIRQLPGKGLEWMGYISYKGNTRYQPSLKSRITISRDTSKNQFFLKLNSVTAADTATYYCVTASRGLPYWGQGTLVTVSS VL: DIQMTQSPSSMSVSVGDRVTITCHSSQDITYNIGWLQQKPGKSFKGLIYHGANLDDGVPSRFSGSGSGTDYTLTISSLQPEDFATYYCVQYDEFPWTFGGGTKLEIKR
stdout: 0.25
